Task for the reader: assign each of the following compounds its reported LD50 at 168 h.
- test: toxicity test on rats, observation for 7 days
- setup-conditions: rat, in vivo, po
- Procedure: The toxicities and narcosis potentiating effects of the novel compounds having the general formula (I) were studied on rats weighing 120 to 150 g. In the toxicity tests the animals were kept under observation for 7 days. The narcosis potentiating effect was studied on animals treated with an intravenous dosage of 50 mg/kg of hexabarbital (5-/1-cyclohexenyl/-1',5-dimethylbarbituric acid), and the prolongation of sleeping period was recorded. […]
Entry rule: numbers only, all in mg/kg.

So for NNC(=O)O[C@H]1C[C@H]2CC[C@@H](C1)N2C(=O)Oc1ccccc1 [Example 3] , the logged LD50 at 168 h turned out to be 5000

Kindly note the recorded LD50 at 168 h for O=C(CCCN1CCC(O)(c2ccc(Cl)cc2)CC1)c1ccc(F)cc1 [Haloperidol, reference compound] , which is 450

So for CN(C)CCCN1c2ccccc2Sc2ccc(Cl)cc21 [Chloropromazine, reference compound] , the logged LD50 at 168 h turned out to be 210
